The entries below come with measured IC50 values attached.
test: Inhibitory concentration against Hepatitis B virus reverse transcriptase (HBV-RT)
measurement name: IC50 (µg/mL)

# smiles entry, measured value
rows = [
    ("CCNc1cccnc1N1CCN(C(=O)c2ccc(C(=O)NC(C)C)cn2)CC1", 0.006),
    ("COCCNC(=O)c1ccc(C(=O)N2CCN(c3ncccc3NCC(C)C)CC2)nc1", 0.007),
    ("CC(C)CNc1cccnc1N1CCN(C(=O)c2ccc(C(=O)Nc3ncccc3O)cn2)CC1", 0.17),
    ("CC(C)Nc1cccnc1N1CCN(C(=O)c2ccc(C(=O)NCCO)cn2)CC1", 0.261),
]
